test system: Streptococcus pneumoniae; assay: MIC by NCCLS broth microdilution, 1100 Japanese clinical isolates 1997-1998; type: cell-based; conditions: Streptococcus pneumoniae, Streptococcus pneumoniae erythromycin susceptible (n=11); read-out: MIC90
quantity: MIC90
Field: value (include unit after the number)

Solved cases below.
• C[C@H]1COc2c(N3CCN(C)CC3)c(F)cc3c(=O)c(C(=O)O)cn1c23 = 1 µg/mL
• C[C@@H]1CN(c2c(F)c(N)c3c(=O)c(C(=O)O)cn(C4CC4)c3c2F)C[C@H](C)N1 = 0.25 µg/mL
• NC1CCN(c2nc3c(cc2F)c(=O)c(C(=O)O)cn3-c2ccc(F)cc2F)C1 (stereo not shown) = 0.25 µg/mL

Q. Give reported MIC90 value for CO/N=C1\CN(c2nc3c(cc2F)c(=O)c(C(=O)O)cn3C2CC2)CC1CN (racemic)
A. 0.032 µg/mL

====

Assignment: determine reported MIC for the given molecules.
system: Gram positive anaerobic and facultative anaerobic pathogens; assay: microbe, parasite or virus in culture; type: cell-based; details: Cutibacterium acnes, ATCC11828
Answers are plain numbers, in µg/mL.

Solved cases below.
• C[C@@H]1CN(c2c(F)c(N)c3c(=O)c(C(=O)O)cn(C4CC4)c3c2F)C[C@H](C)N1 = 0.25
• CO/N=C1\CN(c2nc3c(cc2F)c(=O)c(C(=O)O)cn3C2CC2)CC1CN (racemic) = 0.25

Give measured MIC for every item shown.
1. C[C@@H](O)[C@H]1C(=O)N2C(C(=O)O)=C(SCCN=CN)C[C@H]12
2. N[C@@H]1[C@H]2CN(c3nc4c(cc3F)c(=O)c(C(=O)O)cn4-c3ccc(F)cc3F)C[C@@H]12

A.
1: 0.125; 2: 1

====

system: Salmonella spp.; experiment: MIC by agar dilution (NCCLS M7-A4), 288 enteropathogenic isolates, eight quinolones; assay type: cell-based; conditions: S. hadar (n = 2), ciprofloxacin MIC ≥[…]; read-out: MIC
quantity: MIC (µg/mL)
One number for each entry, in µg/mL.

• Cc1c(F)c(N2CCNC(C)C2)cc2c1c(=O)c(C(=O)O)cn2C1CC1 (stereo not drawn) = 1
• CCn1cc(C(=O)O)c(=O)c2cc(F)c(N3CCNCC3)cc21 = 4
• CC1COc2c(N3CCN(C)CC3)c(F)cc3c(=O)c(C(=O)O)cn1c23 (stereo not drawn) = 2
• C[C@H]1COc2c(N3CCN(C)CC3)c(F)cc3c(=O)c(C(=O)O)cn1c23 = 1
• CO/N=C1\CN(c2nc3c(cc2F)c(=O)c(C(=O)O)cn3C2CC2)CC1CN (racemic) = 0.25

Turning now to a further compound:
Q. Give reported MIC value for N[C@@H]1[C@H]2CN(c3nc4c(cc3F)c(=O)c(C(=O)O)cn4-c3ccc(F)cc3F)C[C@@H]12
A. 0.5

====

system: Enterococcus faecium; assay: MIC by NCCLS broth microdilution, 1100 Japanese clinical isolates 1997-1998; type: cell-based; settings: Enterococcus faecium (n=39)
Assignment: determine reported MIC50 for the given compounds.
Numbers only, in µg/mL.

• C[C@@H]1CN(c2c(F)c(N)c3c(=O)c(C(=O)O)cn(C4CC4)c3c2F)C[C@H](C)N1 = 32
• CO/N=C1\CN(c2nc3c(cc2F)c(=O)c(C(=O)O)cn3C2CC2)CC1CN (racemic) = 16
• N[C@@H]1[C@H]2CN(c3nc4c(cc3F)c(=O)c(C(=O)O)cn4-c3ccc(F)cc3F)C[C@@H]12 = 16

Turning now to a further compound:
Q. Give reported MIC50 value for C[C@H]1COc2c(N3CCN(C)CC3)c(F)cc3c(=O)c(C(=O)O)cn1c23
A. 32

====

Assignment: determine reported MIC for the given compounds.
test system: Streptococcus pneumoniae; test: MIC by NCCLS reference broth microdilution, 450 respiratory tract pathogens; type: cell-based; conditions: Streptococcus pneumoniae, penicillin resistant (n = 18)

Solved cases below.
- N[C@@H]1[C@H]2CN(c3nc4c(cc3F)c(=O)c(C(=O)O)cn4-c3ccc(F)cc3F)C[C@@H]12: 0.06 to 0.25 µg/mL
- C[C@@H]1CN(c2c(F)c(N)c3c(=O)c(C(=O)O)cn(C4CC4)c3c2F)C[C@H](C)N1: 0.25 to 1 µg/mL
- CO/N=C(\C(=O)N[C@@H]1C(=O)N2C(C(=O)O)=C(COC(N)=O)CS[C@H]12)c1ccco1: 2 to 8 µg/mL
- CO/N=C1\CN(c2nc3c(cc2F)c(=O)c(C(=O)O)cn3C2CC2)CC1CN (racemic): 0.0075 to 0.06 µg/mL
- NC1CCN(c2c(F)cc3c(=O)c(C(=O)O)cn(C4CC4)c3c2Cl)C1 (stereo not shown): 0.06 to 0.25 µg/mL

Give measured MIC for every item shown.
1. C[C@H]1COc2c(N3CCN(C)CC3)c(F)cc3c(=O)c(C(=O)O)cn1c23
2. O=C(O)c1cn(C2CC2)c2cc(N3CCNCC3)c(F)cc2c1=O

A.
0.5 to 2 µg/mL
0.5 to 8 µg/mL

====

Assignment: determine reported MIC for the given compounds.
tested on: Campylobacter jejuni; test: MIC by agar dilution (NCCLS M7-A4), 288 enteropathogenic isolates, gemifloxacin and 15 other antimicrobials; settings: Campylobacter jejuni, read-out: MIC (mg/L) 90%
Numbers only, in mg/L.

Give measured MIC for every item shown.
1. Cc1c(F)c(N2CCNC(C)C2)cc2c1c(=O)c(C(=O)O)cn2C1CC1 (stereo not shown) [Grepafloxacin, grepafloxacin]
2. CC1COc2c(N3CCN(C)CC3)c(F)cc3c(=O)c(C(=O)O)cn1c23 (stereo not shown) [Ofloxacin, ofloxacin]

A.
[64, 32]

====

tested on: E. coli; experiment: microbe, parasite or virus in culture; type: cell-based; conditions: Escherichia coli, E. coli KU1032, mutant type SP
Assignment: determine reported MIC for the given compounds.
Numbers only, in mg/L.

Solved cases below.
* CO/N=C1\CN(c2nc3c(cc2F)c(=O)c(C(=O)O)cn3C2CC2)CC1CN (racemic) | 0.125
* N[C@@H]1[C@H]2CN(c3nc4c(cc3F)c(=O)c(C(=O)O)cn4-c3ccc(F)cc3F)C[C@@H]12 | 0.25
* NC1CCN(c2nc3c(cc2F)c(=O)c(C(=O)O)cn3-c2ccc(F)cc2F)C1 (centres unmarked) | 0.125
* C[C@H]1COc2c(N3CCN(C)CC3)c(F)cc3c(=O)c(C(=O)O)cn1c23 | 0.25

Turning now to a further compound:
Q. Give reported MIC value for C[C@@H]1CN(c2c(F)c(N)c3c(=O)c(C(=O)O)cn(C4CC4)c3c2F)C[C@H](C)N1
A. 0.125

====

tested on: Salmonella spp.; assay: MIC by agar dilution (NCCLS M7-A4), 288 enteropathogenic isolates, gemifloxacin and 15 other antimicrobials; type: cell-based; details: Salmonella, S. tshiongwe(1), isolate with MIC for ciprofloxacin ≥[…]; read-out: MIC
quantity: MIC (µg/mL)
Numbers only, in µg/mL.

Solved cases below.
- C[C@H]1COc2c(N3CCN(C)CC3)c(F)cc3c(=O)c(C(=O)O)cn1c23: 1
- CC1COc2c(N3CCN(C)CC3)c(F)cc3c(=O)c(C(=O)O)cn1c23 (stereo not drawn): 2
- N[C@@H]1[C@H]2CN(c3nc4c(cc3F)c(=O)c(C(=O)O)cn4-c3ccc(F)cc3F)C[C@@H]12: 1
- CO/N=C1\CN(c2nc3c(cc2F)c(=O)c(C(=O)O)cn3C2CC2)CC1CN (racemic): 0.25
- Cc1c(F)c(N2CCNC(C)C2)cc2c1c(=O)c(C(=O)O)cn2C1CC1 (stereo not drawn): 2

Turning now to a further compound:
Q. Give reported MIC value for CCn1cc(C(=O)O)c(=O)c2cc(F)c(N3CCNCC3)cc21
A. 4

====

Assignment: determine reported MIC90 for the given compounds.
test system: Staphylococcus aureus; assay: MIC by NCCLS reference broth microdilution, 450 respiratory tract pathogens; assay type: cell-based; settings: β-lactamase positive and erythromycin resistant (n = 10)
Give bare numbers, in µg/mL.

Solved cases below.
* N[C@@H]1[C@H]2CN(c3nc4c(cc3F)c(=O)c(C(=O)O)cn4-c3ccc(F)cc3F)C[C@@H]12 | 0.25
* NC1CCN(c2c(F)cc3c(=O)c(C(=O)O)cn(C4CC4)c3c2Cl)C1 (stereo not shown) | 0.25
* COc1c(N2C[C@@H]3CCCN[C@@H]3C2)c(F)cc2c(=O)c(C(=O)O)cn(C3CC3)c12 | 0.5

Q. Give reported MIC90 value for C[C@@H]1CN(c2c(F)c(N)c3c(=O)c(C(=O)O)cn(C4CC4)c3c2F)C[C@H](C)N1
A. 0.5

====

tested on: Staphylococcus aureus; assay: MIC by NCCLS reference broth microdilution, 450 respiratory tract pathogens; type: cell-based; details: β-lactamase positive and erythromycin resistant (n = 10)
quantity: MIC90 (µg/mL)
Answers are plain numbers, in µg/mL.

Solved cases below.
* C[C@H]1COc2c(N3CCN(C)CC3)c(F)cc3c(=O)c(C(=O)O)cn1c23 | 2
* CO/N=C(\C(=O)N[C@@H]1C(=O)N2C(C(=O)O)=C(COC(N)=O)CS[C@H]12)c1ccco1 | 0.25

Turning now to a further compound:
Q. Give reported MIC90 value for CO/N=C1\CN(c2nc3c(cc2F)c(=O)c(C(=O)O)cn3C2CC2)CC1CN (racemic)
A. 0.06
